# Tested on: Escherichia coli
# methodSummary: Activity of Escherichia coli XL1-Blue wild-type IMP-1 beta-lactamase by spectrophotometer
Kindly state log10 Km for each of the entries shown.
In our notation, the value equals log10 of Km in µM.

In [3]: df
Out[3]:
                                querysmiles      targetentity  recordednumber
0  CO/N=C(\C(=O)N[C@@H]1C(=O)N2C(C(=O)[O-])=C(C[N+]3(C)CCCC3)CS[C@H]12)c1csc(N)n1  Escherichia coli            1.04
1  CC(=O)OCC1=C(C(=O)O)N2C(=O)[C@@H](NC(=O)Cc3cccs3)[C@H]2SC1  Escherichia coli            0.70
2  CO/N=C(\C(=O)N[C@@H]1C(=O)N2C(C(=O)O)=C(COC(C)=O)CS[C@H]12)c1csc(N)n1  Escherichia coli            0.45
3  CC(C)(O/N=C(\C(=O)N[C@@H]1C(=O)N2C(C(=O)[O-])=C(C[n+]3ccccc3)CS[C@H]12)c1csc(N)n1)C(=O)O  Escherichia coli            1.64
4  CO[C@@]1(NC(=O)Cc2cccs2)C(=O)N2C(C(=O)O)=C(COC(N)=O)CS[C@@H]21  Escherichia coli            0.48
5  O=C(Cc1cccs1)N[C@@H]1C(=O)N2C(C(=O)O)=C(/C=C/c3ccc([N+](=O)[O-])cc3[N+](=O)[O-])CS[C@H]12  Escherichia coli            0.91

Lab note: each compound below needs its log10 Km filled in.
1. C[C@@H](O)[C@H]1C(=O)N2C(C(=O)O)=C(SCCNC=N)C[C@H]12
2. C[C@@H](O)[C@H]1C(=O)N2C(C(=O)O)=C(S[C@@H]3CN[C@H](C(=O)N(C)C)C3)[C@H](C)[C@H]12

OUT:
1.40
1.00
